Entry source: patent US7687609B2

target: Galectin-9C (Homo sapiens, UniProt O00182); construct: N and C respectively represent N-terminal side carbohydrate-recognition domain and C-terminal side carbohydrate-recognition domain; made in house; assay: FAC affinity test on galectin-immobilized column; format: binding; conditions: pyridyl-aminated carbohydrate; galectin-9C immobilized 3.0 mg/ml; less than 5 μl = below interaction detection limit
Sequence (O00182 227-355 limits assumed): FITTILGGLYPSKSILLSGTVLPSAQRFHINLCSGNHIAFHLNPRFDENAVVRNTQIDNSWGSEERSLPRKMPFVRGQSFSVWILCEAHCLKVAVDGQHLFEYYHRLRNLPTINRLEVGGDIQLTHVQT
For each of the compounds below, state its V − V0 Value.

Here are 3 compounds together with their reported answers.
compound="CC(=O)N[C@H]1[C@H](O[C@H]2[C@@H](O)[C@@H](COS(=O)(=O)O)O[C@@H](O[C@H]3[C@H](O)[C@@H](NC(C)=O)C(O)O[C@@H]3COS(=O)(=O)O)[C@@H]2O)O[C@H](COS(=O)(=O)O)[C@@H](O)[C@@H]1O (stereo partly shown)" measurement_name="V − V0 Value" measured_result="<5.0 µL"
compound="CC(=O)N[C@H]1[C@H](O[C@H]2[C@@H](O)[C@@H](CO)O[C@@H](O[C@H]3[C@H](O)[C@@H](NC(C)=O)C(O)O[C@@H]3CO)[C@@H]2O)O[C@H](CO)[C@@H](O)[C@@H]1O (stereo partly shown)" measurement_name="V − V0 Value" measured_result="<5.0 µL"
compound="CC(=O)N[C@H]1[C@H](O[C@H]2[C@H](O)[C@@H](O)[C@H](O[C@H]3[C@@H](O)[C@@H](CO)O[C@@H](O[C@H]4[C@H](O)[C@@H](O)[C@H](O[C@H]5[C@@H](O)[C@@H](CO)OC(O)[C@@H]5NC(C)=O)O[C@@H]4C(=O)O)[C@@H]3NC(C)=O)O[C@@H]2C(=O)O)O[C@H](CO)[C@H](O)[C@@H]1O[C@@H]1O[C@H](C(=O)O)[C@@H](O)[C@H](O)[C@H]1O (stereo partly shown)" measurement_name="V − V0 Value" measured_result="<5.0 µL"

We next turn to a different compound, shown below.
For this compound ( CC(=O)N[C@H]1[C@H](O[C@H]2[C@@H](O)[C@@H](COS(=O)(=O)O)O[C@@H](O[C@H]3[C@H](O)[C@@H](NC(C)=O)C(O)O[C@@H]3COS(=O)(=O)O)[C@@H]2O)O[C@H](COS(=O)(=O)O)[C@@H](O[C@@H]2O[C@H](CO)[C@H](O)[C@H](O)[C@H]2O)[C@@H]1O (stereo partly shown) ), measured V − V0 Value is 5.3 ± 0.7 µL

---

For each of the molecules below, state its V − V0 Value.
target: Galectin-3 (Homo sapiens); construct: made in house; assay: FAC affinity test on galectin-immobilized column; assay type: binding; settings: pyridyl-aminated carbohydrate; galectin-3 immobilized 0.5 mg/ml; less than 5 μl = below interaction detection limit
Sequence (P17931 whole entry): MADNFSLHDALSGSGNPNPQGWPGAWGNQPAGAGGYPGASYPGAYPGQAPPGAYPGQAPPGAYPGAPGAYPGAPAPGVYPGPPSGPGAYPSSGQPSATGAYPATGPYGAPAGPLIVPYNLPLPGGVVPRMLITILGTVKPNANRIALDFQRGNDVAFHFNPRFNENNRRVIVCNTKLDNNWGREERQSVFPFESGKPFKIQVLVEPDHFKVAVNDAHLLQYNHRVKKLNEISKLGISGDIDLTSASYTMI
Numbers only, in µL.

molecule="CC(=O)N[C@H]1[C@H](O[C@H]2[C@@H](O)[C@@H](CO)OC(O)[C@@H]2O)O[C@H](CO)[C@@H](O[C@@H]2O[C@H](CO)[C@H](O)[C@H](O)[C@H]2O)[C@@H]1O (some centres unmarked)" measurement_name="V − V0 Value" units_text=µL measured_result=11.6

We next turn to a different molecule, shown below.
For this molecule ( CC(=O)N[C@H]1[C@H](O[C@H]2[C@@H](O)[C@@H](COS(=O)(=O)O)O[C@@H](O[C@H]3[C@H](O)[C@@H](NC(C)=O)C(O)O[C@@H]3COS(=O)(=O)O)[C@@H]2O)O[C@H](COS(=O)(=O)O)[C@@H](O[C@@H]2O[C@H](CO)[C@H](O)[C@H](O)[C@H]2O)[C@@H]1O (some centres unmarked) ), measured V − V0 Value is 15.8
